- target_or_system: phosphorylated active hERK2 enzyme (Homo sapiens (Human))
- Sequence (P28482 whole entry): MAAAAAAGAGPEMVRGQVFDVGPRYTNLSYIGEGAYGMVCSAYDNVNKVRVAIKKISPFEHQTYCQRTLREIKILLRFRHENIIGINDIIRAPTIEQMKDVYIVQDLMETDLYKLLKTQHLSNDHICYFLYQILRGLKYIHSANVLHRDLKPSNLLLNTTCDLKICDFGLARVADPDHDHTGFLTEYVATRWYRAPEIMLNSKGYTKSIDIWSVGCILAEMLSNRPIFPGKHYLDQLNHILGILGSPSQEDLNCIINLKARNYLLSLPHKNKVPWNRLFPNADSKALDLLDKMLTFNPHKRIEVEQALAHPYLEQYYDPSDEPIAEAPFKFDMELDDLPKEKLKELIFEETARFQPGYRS
// classify: if (IC50 < 200 nM) t else f

These recorded examples may help you get a feel for the data.
compound="Cc1cc(-n2ncc3cc(NC(=O)N[C@H]4CCCC[C@H]4Cc4ccccc4)ncc32)ccn1 (racemic) [Example 167]" group_label=t
compound="C[C@@H](NC(=O)Nc1cc2cnn(CC3CCOCC3)c2c(CO)n1)c1ccccc1 [Example 309]" group_label=f
compound="CCO[C@H]1CCCC[C@@H]1NC(=O)Nc1cc2cnn(-c3ccnc(C)c3)c2cn1 (racemic) [Example 146]" group_label=t

Problem: Decide: IC50 of Cc1cc(-n2ncc3cc(NC(=O)N[C@H]4CCC[C@H]4c4ccc(F)cc4)ncc32)ccn1 (racemic) [Example 153] strictly below 200 nM?
Result: t
